# System: P. falciparum stage V gametocytes
# Parameters: BacTiter-Glo ATP luminescence viability of purified stage V gametocytes in 384-well plates, per cent inhibition versus DMSO
# CONDITION LABEL: 48 h, 5 µM; inhibitor
The whole screen tested about 13,000 compounds, of which about 3,200 (25%) showed an effect of 50% or more. This is one part of the list.
Exercise: for every item that follows, state its recorded % Inhibition.
One number for each entry, in %.

COMPOUND: CCCCCNc1nc2nc(N)nc(N)c2nc1-c1ccccc1
UNIT SPEC: %
% Inhibition: -14.59
//
COMPOUND: CCn1ccc2c(N3CCCCS3(=O)=O)cc(C(=O)N[C@@H](Cc3ccccc3)[C@H](O)CNC3CCCCC3)cc21
UNIT SPEC: %
% Inhibition: 53.3
//
COMPOUND: COc1cccc(C(=O)Nc2ccc(Nc3nc(C)cc(N(C)C)n3)cc2)c1
UNIT SPEC: %
% Inhibition: -4.624

Can you give me % Inhibition for all of these, one by one?
1. COc1ccc2nccc(NC(=O)N3CCC(NCc4cc5ccccc5[nH]4)CC3)c2n1
2. CN(C(=O)NCCc1ccccc1)C1CCN(CCCCCNC(=O)/C=C/c2ccc(Cl)c(Cl)c2)CC1
3. CCn1ccc2c(N3CCCCS3(=O)=O)cc(C(=O)N[C@@H](Cc3ccccc3)[C@H](O)CNC(C)(C)c3cccc(C(F)(F)F)c3)cc21
4. CCn1ccc2c(N3CCCS3(=O)=O)cc(C(=O)N[C@@H](Cc3ccccc3)[C@H](O)CNC3CCCCC3)cc21
5. CN(C)C(C)(C)CN(Cc1ccc(-c2ccc(C(F)(F)F)cc2)cc1)C(=O)Cn1c(CCc2cccc(F)c2F)nc(=O)c2ccccc21
6. COc1ccccc1C(=O)Nc1ccc(Nc2nc(C)cc(N(C)C)n2)cc1
7. CC1CN(c2ncc(-c3ccc(CNC4Cc5ccccc5C4)cc3)cn2)CC(C)N1 (stereo not shown)
8. CC(=O)Nc1ncc(C(=O)Nc2cccc(-c3ccc(-c4nc5cc(C(F)(F)F)ccc5[nH]4)s3)c2)s1

[-10.57, -13.13, 87.8, 41.25, 88.12, -11.89, 77.63, 15.71]

* * *

# Test system: P. falciparum stage V gametocytes
# Set-up: BacTiter-Glo ATP luminescence viability of purified stage V gametocytes in 384-well plates, per cent inhibition versus DMSO
# CONDITION LABEL: 48 h, 5 µM; inhibitor
Screen size: about 13,000 compounds; about 3,200 (25%) showed an effect of 50% or more. Some of the results follow.
READOUT KIND: % Inhibition (%)
Numbers only, in %.

Recorded results for 8 compounds are shown here.
COMPOUND: CCCOc1ccccc1C(=O)Nc1nonc1-c1ccc(OCC)c(OCC)c1
% Inhibition, %: 53.72
--
COMPOUND: CCCCc1ccccc1NS(=O)(=O)c1ccc(OC)c(N2CCNCC2)c1
% Inhibition, %: 19.7
--
COMPOUND: CCCOc1ccc(-c2nonc2NC(=O)c2cccc(OC)c2)cc1OCCC
% Inhibition, %: 56.26
--
COMPOUND: Cn1c(-c2ccccc2)cc2c3c(N)nc(N)nc3ccc21
% Inhibition, %: 110.7
--
COMPOUND: Cc1cc2c3c(N)nc(N)nc3ccc2n1C(C)C
% Inhibition, %: -11.65
--
COMPOUND: CN(Cc1cccc(O)c1)C1CCCN(c2cc(NC(=O)c3ccc(F)cc3)ccn2)C1 (stereo not shown)
% Inhibition, %: -31.52
--
COMPOUND: CCCc1cc(C)ccc1OCCCON1C(NC(=O)OCC)=NC(NC(=O)OCC)=NC1(C)C
% Inhibition, %: 12.88
--
COMPOUND: O=C(C=Cc1cccs1)Nc1ccc(-c2nc3ccccc3[nH]2)cc1
% Inhibition, %: -97.24

Can you give me % Inhibition for all of these, one by one?
1. CCOc1ccc(-c2nonc2NC(=O)c2ccccc2OC)cc1OCC
2. Cc1nc(Nc2ccc(C)c(Cl)c2)c2c(C)noc2n1

1. 87.63
2. 15.95

Can you give me % Inhibition for all of these, one by one?
1. Cn1ccc2c3c(N)nc(N)nc3ccc21
2. CCN(CC)CCN(Cc1ccc(-c2ccc(C(F)(F)F)cc2)cc1)C(=O)Cn1c(CCc2cc(F)c(F)cc2F)nc(=O)c2ccccc21
3. O=C(NC1CC1)c1ccc(N2CCC(c3ccccc3)CC2)nc1
4. Nc1nc(N)c2c(ccc3nn(Cc4ccccc4)cc32)n1
5. Oc1ccc(Cl)cc1CN1CCCC(COC(c2ccc(F)cc2)c2ccc(F)cc2)C1 (stereo not shown)
6. Cc1[nH]c2ccc(C#N)cc2c(=O)c1Br
7. CCOc1ccc(-c2nonc2NC(=O)c2ccccc2Cl)cc1OCC
8. CCNc1cc(C)nc(Nc2ccc(NC(=O)C3CCCC3)cc2)n1

1. 5.526
2. 56.5
3. 17.19
4. -1.825
5. 8.672
6. 27.39
7. 48.31
8. -0.5513

Lab note: record % Inhibition of Cc1ccc2[nH]c(C)c(Br)c(=O)c2c1 tested on P. falciparum stage V gametocytes.
65.99
